system: HT29 cells; assay: Antiproliferative MTS assay, HT29 cells, 72 h; assay type: cell-based, human; details: 72 h compound incubation
# note: boundary value 0.4 µM maps to False; IC50 below it maps to True

Here's an entry: `CN(N=Nc1ccc(C#N)cc1)C(=O)c1ccccc1.O=S(=O)([O-])C(F)(F)F.[Ru+2].c1cc[cH-]c1.c1ccc(P(CCP(c2ccccc2)c2ccccc2)c2ccccc2)cc1` . Is its IC50 below 0.4 µM?
True

Try this molecule too: `N#Cc1ccc(NC(=O)COCCOCCOCCN=[N+]=[N-])cc1.O=S(=O)([O-])C(F)(F)F.[Ru+2].c1cc[cH-]c1.c1ccc(P(CCP(c2ccccc2)c2ccccc2)c2ccccc2)cc1`
True

Try this molecule too: `CN(C)N=Nc1ccc(C#N)cc1.O=S(=O)([O-])C(F)(F)F.c1cc[cH-]c1.c1ccc([P]2(c3ccccc3)CC[P](c3ccccc3)(c3ccccc3)[Ru+2]2)cc1`
True

Try this molecule too: `N#Cc1ccc(NC(=O)CCOCCOCCOCCN)cc1.O=S(=O)([O-])C(F)(F)F.[Ru+2].c1cc[cH-]c1.c1ccc(P(CCP(c2ccccc2)c2ccccc2)c2ccccc2)cc1`
False

Try this molecule too: `CCCC(=O)Nc1ccc(C#N)cc1.O=S(=O)([O-])C(F)(F)F.c1cc[cH-]c1.c1ccc([P]2(c3ccccc3)CC[P](c3ccccc3)(c3ccccc3)[Ru+2]2)cc1`
True

---

system: AML12 cells; assay: Cytotoxicity by AK release (ToxiLight), AML12 hepatocytes, 24 h; type: cell-based, mouse; settings: 24 h compound incubation
Readout Kind: EC50 (µM)
Entry rule: numbers only, all in µM.

Given the entry `CCCC(=O)Nc1ccc(C#N)cc1.O=S(=O)([O-])C(F)(F)F.c1cc[cH-]c1.c1ccc([P]2(c3ccccc3)CC[P](c3ccccc3)(c3ccccc3)[Ru+2]2)cc1` , what EC50 was observed with AML12 cells?
40.2
